The entries below come with measured GI50 values attached.
Test system: T-Rex 293 cell line SC3 cells lacking increased expression of androgen receptor protein
Assay: Cellular growth inhibition assay, T-Rex 293 SC3 cells without doxycycline (CellTiter-Glo, 72 hours)
Assay type: cell-based
Settings: 72 h, T-Rex 293 cell line SC3 cells not exposed to doxycycline (lacking increased androgen receptor expression)
Method: The following types of cells were prepared for this experiment: (i) a T-Rex 293 cell line having increased expression of androgen receptor protein due to exposure to doxycycline and (ii) a T-Rex 293 cell line lacking increased expression of androgen receptor protein. Ability of the test compounds to inhibit proliferation of the foregoing cell types was evaluated according to the procedures set forth below. […] Data was normalized using zero luminescence for baseline. […]

INSERT INTO assay_data (compound, test_target, quantity_name, reported_result) VALUES
  ('Cc1sc2c(c1C)C(c1ccc(N3CCC4(CCN(c5ccc(C(=O)N[C@H]6CC[C@H](Oc7ccc(C#N)c(Cl)c7)CC6)nn5)CC4)C3)cc1)=NC(C(F)(F)F)c1nnc(C)n1-2 (stereo partly shown)', 'T-Rex 293 cell line SC3 cells lacking increased expression of androgen receptor protein', 'GI50', '> 3000 nM'),
  ('Cc1sc2c(c1C)C(c1ccc([C@H]3CC[C@H](N4CCCN(c5ccc(C(=O)N[C@H]6CC[C@H](Oc7ccc(C#N)c(Cl)c7)CC6)nn5)CC4)CC3)cc1)=N[C@@H](Cc1ncco1)c1nnc(C)n1-2', 'T-Rex 293 cell line SC3 cells lacking increased expression of androgen receptor protein', 'GI50', '> 3000 nM'),
  ('Cc1sc2c(c1C)C(c1ccc(C[C@H]3C[C@@]4(CCCN(c5ccc(C(=O)N[C@H]6CC[C@H](Oc7ccc(C#N)c(Cl)c7)CC6)nn5)C4)C3)cc1)=N[C@@H](C)c1nnc(C)n1-2', 'T-Rex 293 cell line SC3 cells lacking increased expression of androgen receptor protein', 'GI50', '> 3000 nM'),
  ('Cc1sc2c(c1C)C(c1ccc([C@H]3C[C@@H]3CC3CCCN(c4ccc(C(=O)N[C@H]5CC[C@H](Oc6ccc(C#N)c(Cl)c6)CC5)nn4)C3)cc1)=N[C@@H](Cc1ncco1)c1nnc(C)n1-2 (stereo partly shown)', 'T-Rex 293 cell line SC3 cells lacking increased expression of androgen receptor protein', 'GI50', '< 500 nM'),
  ('CCNC(=O)C[C@@H]1N=C(c2ccc(CN3CC4CN(c5ccc(C(=O)N[C@H]6CC[C@H](Oc7ccc(C#N)c(Cl)c7)CC6)nn5)CC4C3)cc2)c2c(sc(C)c2C)-n2c(C)nnc21 (stereo partly shown)', 'T-Rex 293 cell line SC3 cells lacking increased expression of androgen receptor protein', 'GI50', '1500 to 3000 nM'),
  ('Cc1sc2c(c1C)C(c1ccc(N3CC4(CCN(c5ccc(C(=O)NC6CCC(Oc7ccc(C#N)c(Cl)c7)CC6)nn5)CC4)C3)cc1)=N[C@@H](Cc1ncco1)c1nnc(C)n1-2 (stereo partly shown)', 'T-Rex 293 cell line SC3 cells lacking increased expression of androgen receptor protein', 'GI50', '< 500 nM'),
  ('Cc1sc2c(c1C)C(c1ccc(OC3CC4(C3)CC3(CCN(c5ccc(C(=O)N[C@H]6CC[C@H](Oc7ccc(C#N)c(Cl)c7)CC6)nn5)CC3)C4)cc1)=NCc1nnc(C)n1-2', 'T-Rex 293 cell line SC3 cells lacking increased expression of androgen receptor protein', 'GI50', '> 3000 nM'),
  ('Cc1sc2c(c1C)C(c1ccc([C@H]3CC[C@]4(C3)CN(c3ccc(C(=O)N[C@H]5CC[C@H](Oc6ccc(C#N)c(Cl)c6)CC5)nn3)CCO4)cc1)=N[C@@H](Cc1ncco1)c1nnc(C)n1-2', 'T-Rex 293 cell line SC3 cells lacking increased expression of androgen receptor protein', 'GI50', '> 3000 nM');

Record Cc1sc2c(c1C)C(c1ccc(C(=O)N3CCN(C(=O)c4ccc(C(=O)N[C@H]5CC[C@H](Oc6ccc(C#N)c(Cl)c6)CC5)nn4)CC3)cc1)=N[C@@H](Cc1ncco1)c1nnc(C)n1-2 , field GI50: > 3000 nM

Lab book: GI50 of Cc1sc2c(c1C)C(c1ccc(C3CCC(CC4CCN(c5ccc(C(=O)N[C@H]6CC[C@H](Oc7ccc(C#N)c(Cl)c7)CC6)nn5)CC4)CC3)cc1)=N[C@@H](C)c1nnc(C)n1-2 (stereo partly shown) noted as > 3000 nM
